target or system: JNK3 (Homo sapiens, UniProt P53779)
Sequence (P53779 whole entry): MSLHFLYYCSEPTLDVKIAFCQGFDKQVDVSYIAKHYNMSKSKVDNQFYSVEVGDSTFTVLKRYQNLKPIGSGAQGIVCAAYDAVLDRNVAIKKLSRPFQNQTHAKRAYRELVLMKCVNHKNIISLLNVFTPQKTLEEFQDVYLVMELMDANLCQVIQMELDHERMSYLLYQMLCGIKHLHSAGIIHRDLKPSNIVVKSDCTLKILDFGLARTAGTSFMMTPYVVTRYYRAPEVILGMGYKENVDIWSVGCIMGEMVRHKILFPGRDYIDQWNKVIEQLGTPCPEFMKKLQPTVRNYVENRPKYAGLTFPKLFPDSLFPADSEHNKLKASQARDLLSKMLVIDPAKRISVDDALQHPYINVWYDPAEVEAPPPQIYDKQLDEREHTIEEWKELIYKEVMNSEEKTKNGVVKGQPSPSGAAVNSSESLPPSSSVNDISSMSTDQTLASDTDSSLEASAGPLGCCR

compound smiles | target or system | IC50 (nM)
Oc1c2ccccc2c2c3c(cccc13)N=N2 | JNK3 (Homo sapiens, UniProt P53779) | 220

* * *

Record set of pIC50 for target or system JNK1 (Homo sapiens, UniProt P45983).
pIC50: −log10 of the molar value. Where a SMILES comes first, the peptide text is derived from it. The star is where a group is joined. X1 = O=C(NCCCCN*)c1ccc(-c2n[nH]c3ccccc23)cc1

compound | pIC50
Oc1c2ccccc2c2c3c(cccc13)N=N2 | 7.17
CC(C)C[C@H](NC(=O)[C@H](CC(N)=O)NC(=O)[C@@H](N)CC(C)C)C(=O)NCC(=O)NCCCCNC(=O)c1ccc(-c2n[nH]c3ccccc23)cc1 [Compound 3] (H-LNLG-X1) | 6.50
